Several publications report pKi on Caspase-1 (Homo sapiens); those values are gathered here.
pKi: −log10 of the molar value.
value.kind: pKi

{"compound": "O=C[C@@H](NS(=O)(=O)c1ccccc1Oc1ccc(C2CCCC2)cc1)C(=O)O", "observed.value": 6.06}
{"compound": "O=C[C@H](CC(=O)O)NC(=O)C(CCCCNC(=O)c1ccc(Nc2cnc3ccccc3n2)cc1)c1ccccc1F (stereo partly drawn)", "observed.value": 8.10}
{"compound": "O=C[C@H](CC(=O)O)NC(=O)c1cnc(CNC(=O)c2ccc(Nc3cnc4ccccc4n3)cc2)cn1", "observed.value": 6.00}
{"compound": "O=C[C@H](CC(=O)O)NC(=O)c1ccc(CNS(=O)(=O)c2ccc(O)c(C(=O)O)c2)s1", "observed.value": 5.72}
{"compound": "O=C[C@H](CC(=O)O)NC(=O)C(CCCCNC(=O)c1ccc(Nc2cncc(Cl)n2)cc1)c1cccs1 (stereo partly drawn)", "observed.value": 7.27}
{"compound": "C=C1C(=O)O[C@@H]2C3O[C@]3(C)CC/C=C(\\C)CC[C@@H]12 (stereo partly drawn)", "observed.value": 4.97}
{"compound": "O=C[C@H](CC(=O)O)NC(=O)CCCCCNC(=O)c1ccc(Nc2cnccn2)cc1", "observed.value": 4.43}
{"compound": "Cc1ccc(Oc2ccccc2S(=O)(=O)N[C@H](C=O)C(=O)O)cc1", "observed.value": 5.96}
{"compound": "O=C[C@H](CC(=O)O)NC(=O)[C@@H]1CCCN2C(=O)CC[C@H](NC(=O)c3ccccc3)C(=O)N12", "observed.value": 8.30}
{"compound": "CC(C)[C@H](NC(=O)CCc1ccccc1)C(=O)N[C@@H](C)C(=O)NC(CC(=O)O)C(=O)CNCCc1ccccc1 (stereo partly drawn)", "observed.value": 8.33}
{"compound": "O=C(O)C[C@H](NC(=O)OCc1ccccc1)C(=O)CONC(=O)c1ccccc1", "observed.value": 4.68}
{"compound": "O=C[C@H](CC(=O)O)NC(=O)[C@H]1CC[C@H](CNC(=O)c2ccc(Nc3cnc4ccccc4n3)cc2)CC1", "observed.value": 5.71}
{"compound": "CC(C)[C@H](NC(=O)CCc1ccccc1)C(=O)N[C@@H](C)C(=O)NC(CC(=O)O)C(=O)C(F)(F)CCCc1ccccc1 (stereo partly drawn)", "observed.value": 5.22}
{"compound": "C=C(C(=O)OCC)C(O)c1ccccc1Cl (stereo not drawn)", "observed.value": 5.02}
{"compound": "CC(C)[C@H](NC(=O)CCc1ccccc1)C(=O)N[C@@H](C)C(=O)N[C@@H](CC(=O)O)C(=O)CCc1ccccc1", "observed.value": 6.21}
{"compound": "Cc1cccc2c(CC(=O)OCC(=O)[C@H](CC(=O)O)NC(=O)OCc3ccccc3)cccc12", "observed.value": 5.70}
{"compound": "CC(C)[C@H](CC(=O)NCCc1cncc2ccccc12)C(=O)N[C@H](C=O)CC(=O)O", "observed.value": 8.37}
{"compound": "O=C[C@@H](NS(=O)(=O)c1ccccc1Oc1ccccc1)C(=O)O", "observed.value": 4.62}

====

test.system: UniProtKB P29466
Sequence (P29466 whole entry): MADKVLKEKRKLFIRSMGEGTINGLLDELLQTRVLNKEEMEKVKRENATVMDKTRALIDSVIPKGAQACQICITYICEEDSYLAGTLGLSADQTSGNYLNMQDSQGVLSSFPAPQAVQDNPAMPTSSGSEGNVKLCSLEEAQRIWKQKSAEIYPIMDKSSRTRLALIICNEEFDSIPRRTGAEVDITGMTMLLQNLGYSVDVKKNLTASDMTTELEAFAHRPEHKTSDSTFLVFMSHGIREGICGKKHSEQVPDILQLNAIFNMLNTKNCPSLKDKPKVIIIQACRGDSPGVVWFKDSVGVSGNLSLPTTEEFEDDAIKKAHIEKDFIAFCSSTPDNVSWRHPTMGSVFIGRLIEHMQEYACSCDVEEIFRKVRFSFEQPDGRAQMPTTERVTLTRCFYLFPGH
pKi: −log10 of the molar value.
Hi, quick share: literature pKi data for UniProtKB P29466, several sources combined.
value.kind: pKi

{"compound": "CC(=O)N[C@@H](Cc1ccc(O)cc1)C(=O)N[C@@H](CCC(=O)O)C(=O)N[C@@H](C)C(=O)NC(CC(=O)O)C(=O)CNS(=O)(=O)CCc1ccccc1 (some centres undefined)", "value.kind": "pKi", "observed.value": 8.40}
{"compound": "O=C[C@@H](NS(=O)(=O)c1ccccc1Oc1ccc(C2CCCCC2)cc1)C(=O)O", "value.kind": "pKi", "observed.value": 6.05}
{"compound": "CC(C)[C@H](CC(=O)NCCC(=O)c1ccccc1)C(=O)N[C@H](C=O)CC(=O)O", "value.kind": "pKi", "observed.value": 6.93}
{"compound": "Cc1cccc(Oc2ccccc2S(=O)(=O)N[C@H](C=O)C(=O)O)c1C", "value.kind": "pKi", "observed.value": 6.00}

====

Literature compilation of pKi measurements on Caspase-1 (Homo sapiens, UniProt P29466).
pKi: −log10 of the molar value.

{"smiles.text": "O=C1C(=O)N(Cc2ccccc2)c2ccc([N+](=O)[O-])cc21", "pKi": 4.74}
{"smiles.text": "O=C[C@H](CC(=O)O)NC(=O)CCCCCCNC(=O)c1ccc(Nc2cnc3ccccc3n2)cc1", "pKi": 5.59}
{"smiles.text": "CC(C)[C@H](CC(=O)N1CCN(c2ccccc2)CC1)C(=O)N[C@H](C=O)CC(=O)O", "pKi": 5.99}
{"smiles.text": "O=C(O)C[C@H](NC(=O)OCc1ccccc1)C(=O)CON1C(=O)C[C@@H]2CCCC[C@@H]21", "pKi": 5.04}
{"smiles.text": "Cc1ccccc1Oc1ccccc1S(=O)(=O)N[C@H](C=O)C(=O)O", "pKi": 5.52}

====

Reported pKi on the protein given by its sequence for assorted molecules, compiled from publications.
Protein target, amino acids: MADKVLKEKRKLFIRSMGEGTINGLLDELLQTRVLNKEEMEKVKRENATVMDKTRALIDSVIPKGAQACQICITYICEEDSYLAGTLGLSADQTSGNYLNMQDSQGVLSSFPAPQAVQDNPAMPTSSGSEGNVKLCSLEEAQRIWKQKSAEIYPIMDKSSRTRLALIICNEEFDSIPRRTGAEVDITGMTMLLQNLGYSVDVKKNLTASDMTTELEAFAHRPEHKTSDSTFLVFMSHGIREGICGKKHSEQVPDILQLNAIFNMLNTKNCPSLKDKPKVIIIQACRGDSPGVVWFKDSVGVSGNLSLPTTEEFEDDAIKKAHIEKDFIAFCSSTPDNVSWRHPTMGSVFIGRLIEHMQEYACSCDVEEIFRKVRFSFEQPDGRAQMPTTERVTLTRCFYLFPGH
pKi: −log10 of the molar value.
value.kind: pKi

{"molecule": "Cc1cc2nc(C)n(CCNC(=O)C[C@H](C(=O)N[C@H](C=O)CC(=O)O)C(C)C)c2cc1C", "value.kind": "pKi", "observed.value": 8.90}
{"molecule": "O=C(O)C[C@H](NC(=O)OCc1ccccc1)C(=O)CONC(=O)Cc1cccc2ccccc12", "value.kind": "pKi", "observed.value": 4.08}
{"molecule": "CCC(CC)c1ccc(Oc2ccccc2S(=O)(=O)N[C@H](C=O)C(=O)O)cc1", "value.kind": "pKi", "observed.value": 6.36}
{"molecule": "O=C(O)C[C@H](NC(=O)OCc1ccccc1)C(=O)CONC(=O)CCc1cccc2ccccc12", "value.kind": "pKi", "observed.value": 3.53}
{"molecule": "Cc1cc(Oc2ccccc2S(=O)(=O)N[C@H](C=O)C(=O)O)ccc1C(C)C", "value.kind": "pKi", "observed.value": 6.96}
{"molecule": "Cc1c(CCNC(=O)C[C@H](C(=O)N[C@H](C=O)CC(=O)O)C(C)C)c2ccccc2n1C", "value.kind": "pKi", "observed.value": 9.05}
{"molecule": "O=C(O)C[C@H](NC(=O)c1cnc(CNS(=O)(=O)c2ccc(O)c(C(=O)O)c2)s1)C(=O)CSCc1ccccc1Cl", "value.kind": "pKi", "observed.value": 5.08}
{"molecule": "O=C[C@H](CC(=O)O)NC(=O)[C@@H]1CCCN2C(=O)CCC(NC(=O)c3ccccc3)C(=O)N12 (some centres undefined)", "value.kind": "pKi", "observed.value": 8.30}
{"molecule": "O=C[C@H](CC(=O)O)NC(=O)c1ccc(CNC(=O)c2ccc(Nc3cnc4ccccc4n3)cc2)o1", "value.kind": "pKi", "observed.value": 5.68}

====

pKi: −log10 of the molar value.
Literature-derived pKi for Caspase-1 (Homo sapiens, UniProt P29466) follows.
value.kind: pKi

{"smiles.text": "O=C[C@@H](NS(=O)(=O)c1ccccc1Oc1ccc(-c2ccccc2)cc1)C(=O)O", "observed.value": 6.54}
{"smiles.text": "CC(=O)N[C@@H](Cc1ccc(O)cc1)C(=O)N(C)[C@H](C(=O)N[C@@H](C)C(=O)N[C@H](C=O)CC(=O)O)C(C)C", "observed.value": 4.30}
{"smiles.text": "CC(C)[C@H](CC(=O)NCCc1cccc2ncccc12)C(=O)N[C@H](C=O)CC(=O)O", "observed.value": 8.74}
{"smiles.text": "CC(C)[C@H](CC(=O)NCCc1cccc2ccccc12)C(=O)N[C@H](C=O)CC(=O)O", "observed.value": 9.24}
{"smiles.text": "CC(C)[C@H](NC(=O)OCc1ccccc1)C(=O)N[C@@H](C)C(=O)N[C@@H](C=O)CC(=O)O", "observed.value": 7.82}
